Test system: TRIM66 (PB)
Test: Histone peptide microarray
Format: binding, human
Conditions: TRIM66 (PB), GST-tagged; arrays performed twice, n of 4
Where no end group is shown, it is not given here. [ ]: non-standard residue; d: D form. pS = N[C@@H](COP(=O)(O)O)C(=O)O
Below: a set of entries, each annotated with reported Array Heatmap value (peptide array binding signal).

H2A.Z (1-19): H2AZ 1-19 (AGGKAGKDSGKAKTKAVSR; UniProt P0C0S5 2-20, looked up, fragment) ... 0.6377
H2AX (132-142): H2AX 132-142 (GKKATQASQEY; UniProt P16104 133-143, looked up, fragment) ... 0.5363
H2AX (S139p): H2AX 132-142 (GKKATQA[pS]QEY; UniProt P16104 133-143, looked up, fragment) ... 0.5363

query: Quick one: Array Heatmap value (peptide array binding signal) of Myc-Tag: 1-10 (ILKKATAYIL; Myc epitope tag; UniProt P01106 410-419, looked up, fragment) ?
result: 0.6061

query: GET /values?readout=Array Heatmap value (peptide array binding signal)&item= H2A.Z K4ac + K8ac + K12ac (1-19) (N-ac): H2AZ 1-19 (Ac-AGGKAGKDSGKAKTKAVSR; not fully specified (residue 4); UniProt P0C0S5 2-20, looked up, fragment)
result: 0.6947

Each recorded value in this set is attributed to paper PMC6979384.
